tested on: A549 cells; assay: Cell-based assay, anti-proliferative activity (Cell Counting Kit-8, 72 hours); set-up: species or system human; settings: Homo sapiens, A549, 72 h, read-out: IC50 (μM) (A549)
Counter-ions that a name gives are not always drawn.
parameter: IC50 (µM)
Report the value in µM with no unit label.

Short answer for CC(=O)c1cnc2ccc(-c3cc(Cl)c(O)c(Cl)c3)nc2c1Nc1ccc(N2CCC[C@H](N)C2)nc1 [Example 71, trihydrochloride] : IC50 was 0.09

Short answer for CCC(=O)c1cnc2ccc(-c3cc(Cl)c(O)c(Cl)c3)nc2c1Nc1ccc(N2CCC[C@H](N)C2)nc1 [Example 207, trihydrochloride] : IC50 was 0.098

Short answer for CC(=O)c1cnc2ccc(-c3cc(Cl)c(O)c(Cl)c3)nc2c1Nc1ccc(CN2CCN(C)CC2)cc1 [Example 34, trihydrochloride] : IC50 was 0.19

Short answer for CC(=O)c1cnc2ccc(-c3cc(F)c(O)c(Cl)c3)nc2c1N1CCC(CCN2CCCC2)CC1 [Example 37, dihydrochloride] : IC50 was 1.2

Short answer for CC(=O)c1cnc2ccc(-c3cc(F)c(O)c(Cl)c3)nc2c1N[C@H]1CC[C@@H](CN(C)C)CC1 [Example 93, dihydrochloride] : IC50 was 0.039

Short answer for COc1cc(-c2ccc3ncc(S(C)(=O)=O)c(N[C@H]4CC[C@H](CN(C)C)CC4)c3n2)cc(Cl)c1O [Example 14] : IC50 was 0.033
